These measurements were taken from the supplement of paper PMC13380429.

- Tested on: Vero E6 infected with SARS-CoV-2
- protocol.description: inhibition of SARS-CoV-2 cytopathic effect; higher = more antiviral protection, active = above 15
- condition.description: 10000 nM; 48 h
endpoint.name: inhibition of SARS-CoV-2 cytopathic effect (%)

> print(dat)
                                    compound  display.unit  experimental.result
 1    NC(=O)CN1CC(O)CC1=O (stereo not given)             %                 0.29
 2          c1ccc(CCCCN2CCC(c3ccccc3)CC2)cc1             %                -0.99
 3      Cc1ncc(CSSCc2cnc(C)c(O)c2CO)c(CO)c1O             %                 0.94
 4  COc1cc(S(C)(=O)=O)ccc1Nc1nc2ccc(-c3ccc(NC(=O)[C@H](C)c4ccc(F)cc4)cc3)cn2n1             %                -4.51
 5  CC(C)OC(=O)CNC(=O)[C@H](CS)NC(=O)CC[C@H](N)C(=O)O             %                 2.32
 6  CCCCCCCCCCC[C@@H](C[C@@H]1OC(=O)[C@H]1CCCCCC)OC(=O)[C@H](CC(C)C)NC=O             %                 1.43
 7  CCCNCCc1ccc(NS(=O)(=O)c2ccc(OC(F)(F)F)cc2)cc1             %                -4.37
 8                              NNCCc1ccccc1             %                    3
 9       CCCC(=O)Nc1cccc(NC(=O)c2ccccc2Br)c1             %                -0.66
10            Cc1nc2c(OCc3ccccc3)cccn2c1CC#N             %                 1.07
